protocolDetails: Cytotoxicity in HepG2 2.15 cells
Assay type: cell-based
testParameters: human, Hep G2 2.15 cells
Hi there, I'd appreciate the recorded pIC50 for every entry that follows.
Quick note: pIC50 means taking -log10 of the concentration in moles per liter.

In plain terms, CC(C)c1cc2c(N3CCN(C4=NCC(C)(C)S4)CC3)ncnc2s1 [MI-3] has a documented pIC50 of 5.36

In plain terms, CCS(=O)(=O)c1cccc(-c2cc(C(=O)NC3CCN(C)CC3)c(C)c3[nH]c4ncc(C)cc4c23)c1 [TAK-901] has a documented pIC50 of 4.96

In plain terms, CN1CCc2c(c3ccccc3n2Cc2ccc(C(=O)NO)cc2)C1.Cl [Tubastatin A HCl, Tubastatin A hydrochloride salt] has a documented pIC50 of 5.14

In plain terms, Cc1cc(Nc2nc(N[C@@H](C)c3ccc(F)cc3)c(C#N)cc2F)n[nH]1 [AZ960] has a documented pIC50 of 6.64

In plain terms, Cc1nc(N)sc1-c1ccnc(Nc2ccc(N3CCOCC3)cc2)n1 [CYC-116] has a documented pIC50 of 5.83

In plain terms, CCCCN(Cc1ccc(C(=O)NO)cc1)C(=O)Nc1ccccc1 [Nexturastat A] has a documented pIC50 of 5.45
